- Tested on: SNB-19
- assay_text: Growth inhibition of human SNB19 cells assessed as cell growth at 10^-6 M incubated for 48 hrs by sulforhodamine B assay relative to control
- Assay type: functional
- condition_parameters: SNB-19, 48 h, read-out: Activity
readout_type: growth at 1 µM (%)
Give just the number in %; leave the unit off.

Some solved cases for reference:
>>> test_value("C#C[C@@]1(O)[C@@H](CO)O[C@@H](n2cc(Br)c3c(N)ncnc32)[C@@H]1O")
6
>>> test_value("C#C[C@@]1(O)[C@@H](CO)O[C@@H](n2cc(F)c3c(N)ncnc32)[C@@H]1O")
39

Determine from records and report growth at 1 µM for C#C[C@@]1(O)[C@@H](CO)O[C@@H](n2ccc3c(N)ncnc32)[C@@H]1O
67

====

- System: NCI-H226
- assay_text: Cytotoxicity against human NCI-H226 cells after 48 hrs by SRB assay
- Format: functional
- condition_parameters: NCI-H226, 48 h, read-out: TGI
Quick reference for TGI among some compounds

>>> test_value("C#C[C@@]1(O)[C@@H](CO)O[C@@H](n2cc(F)c3c(N)ncnc32)[C@@H]1O")
"2.63 µM"
>>> test_value("C#C[C@@]1(O)[C@@H](CO)O[C@@H](n2ccc3c(N)ncnc32)[C@@H]1O")
"4.85 µM"
>>> test_value("C#C[C@@]1(O)[C@@H](CO)O[C@@H](n2cc(Br)c3c(N)ncnc32)[C@@H]1O")
"6.37 to 100 µM"
>>> test_value("C#C[C@@]1(O)[C@@H](CO)O[C@@H](n2cc(Cl)c3c(N)ncnc32)[C@@H]1O")
"0.901 to 100 µM"

Please find the next compound below.
Using the record for C#C[C@@]1(O)[C@@H](CO)O[C@@H](n2cc(I)c3c(N)ncnc32)[C@@H]1O , state its measured TGI.
> 100 µM

====

- Test system: HCT-116
- assay_text: Growth inhibition of human HCT116 cells assessed as cell growth at 10^-6 M incubated for 48 hrs by sulforhodamine B assay relative to control
- Type: functional
- condition_parameters: HCT-116, 48 h, read-out: Activity
# growth at 1 µM per entry
Please respond with the number in % and leave the unit unwritten.

>>> test_value("C#C[C@@]1(O)[C@@H](CO)O[C@@H](n2ccc3c(N)ncnc32)[C@@H]1O")
38

# return growth at 1 µM for C#C[C@@]1(O)[C@@H](CO)O[C@@H](n2cc(F)c3c(N)ncnc32)[C@@H]1O , test system: HCT-116
4

====

- System: KM12
- assay_text: Growth inhibition of human KM12 cells assessed as cell growth at 10^-5 M incubated for 48 hrs by sulforhodamine B assay relative to control
- Format: functional
- condition_parameters: KM12, 48 h, read-out: Activity
Recorded growth at 10 µM for the following compounds

>>> test_value("C#C[C@@]1(O)[C@@H](CO)O[C@@H](n2ccc3c(N)ncnc32)[C@@H]1O")
"2%"
>>> test_value("C#C[C@@]1(O)[C@@H](CO)O[C@@H](n2cc(I)c3c(N)ncnc32)[C@@H]1O")
"3 to 12%"
>>> test_value("C#C[C@@]1(O)[C@@H](CO)O[C@@H](n2cc(Br)c3c(N)ncnc32)[C@@H]1O")
"7 to 12%"
>>> test_value("C#C[C@@]1(O)[C@@H](CO)O[C@@H](n2cc(F)c3c(N)ncnc32)[C@@H]1O")
"7%"

Identify growth at 10 µM associated with the compound C#C[C@@]1(O)[C@@H](CO)O[C@@H](n2cc(Cl)c3c(N)ncnc32)[C@@H]1O
5 to 9%

====

- System: ACHN
- assay_text: Growth inhibition of human ACHN cells assessed as cell growth at 10^-4 M incubated for 48 hrs by sulforhodamine B assay relative to control
- Format: functional
- condition_parameters: read-out: Activity
readout_type: growth at 100 µM (%)
Respond numerically; units are % and should not be typed.

// below: answered compounds
>>> test_value("C#C[C@@]1(O)[C@@H](CO)O[C@@H](n2cc(Cl)c3c(N)ncnc32)[C@@H]1O")
7
>>> test_value("C#C[C@@]1(O)[C@@H](CO)O[C@@H](n2cc(Br)c3c(N)ncnc32)[C@@H]1O")
7
>>> test_value("C#C[C@@]1(O)[C@@H](CO)O[C@@H](n2cc(F)c3c(N)ncnc32)[C@@H]1O")
2
>>> test_value("C#C[C@@]1(O)[C@@H](CO)O[C@@H](n2ccc3c(N)ncnc32)[C@@H]1O")
-24

Determine from records and report growth at 100 µM for C#C[C@@]1(O)[C@@H](CO)O[C@@H](n2cc(I)c3c(N)ncnc32)[C@@H]1O
1

====

- System: UACC-257
- assay_text: Cytotoxicity against human UACC257 cells after 48 hrs by SRB assay
- Assay type: functional
- condition_parameters: UACC-257, 48 h, read-out: TGI
Listing of entries alongside the reported TGI.
# output: bare number, implied unit µM

>>> test_value("C#C[C@@]1(O)[C@@H](CO)O[C@@H](n2ccc3c(N)ncnc32)[C@@H]1O")
7.05

// fetch TGI given entry C#C[C@@]1(O)[C@@H](CO)O[C@@H](n2cc(F)c3c(N)ncnc32)[C@@H]1O
4.64

====

- System: OVCAR-5
- assay_text: Growth inhibition of human OVCAR5 cells assessed as cell growth at 10^-7 M incubated for 48 hrs by sulforhodamine B assay relative to control
- Assay type: functional
- condition_parameters: OVCAR-5, 48 h, read-out: Activity
Parameter: growth at 0.1 µM. Scope: all listed entries.

Recorded growth at 0.1 µM, per entry:
>>> test_value("C#C[C@@]1(O)[C@@H](CO)O[C@@H](n2cc(F)c3c(N)ncnc32)[C@@H]1O")
"108%"
>>> test_value("C#C[C@@]1(O)[C@@H](CO)O[C@@H](n2cc(Cl)c3c(N)ncnc32)[C@@H]1O")
"72 to 102%"

Write down growth at 0.1 µM measured for item C#C[C@@]1(O)[C@@H](CO)O[C@@H](n2ccc3c(N)ncnc32)[C@@H]1O
106%

Answer with the recorded growth at 0.1 µM of C#C[C@@]1(O)[C@@H](CO)O[C@@H](n2cc(I)c3c(N)ncnc32)[C@@H]1O only.
67 to 75%

Tell me its growth at 0.1 µM given C#C[C@@]1(O)[C@@H](CO)O[C@@H](n2cc(Br)c3c(N)ncnc32)[C@@H]1O as the entry.
62 to 97%

====

Catalogue of TGI readings, one per entry.
- Test system: COLO 205
- assay_text: Cytotoxicity against human COLO205 cells after 48 hrs by SRB assay
- Assay type: functional
- condition_parameters: COLO 205, 48 h, read-out: TGI
The response must be a number in nM with no trailing unit.

>>> test_value("C#C[C@@]1(O)[C@@H](CO)O[C@@H](n2ccc3c(N)ncnc32)[C@@H]1O")
2670

Please report TGI for the following compound: C#C[C@@]1(O)[C@@H](CO)O[C@@H](n2cc(F)c3c(N)ncnc32)[C@@H]1O
1300

====

- Test system: NCI/ADR-RES
- assay_text: Cytotoxicity against human NCI-ADR-RES cells after 48 hrs by SRB assay
- Format: functional
- condition_parameters: read-out: TGI
readout_type: TGI (µM)
Enter your answer as a number in µM; do not include the unit.

Quote TGI with test system NCI/ADR-RES for C#C[C@@]1(O)[C@@H](CO)O[C@@H](n2ccc3c(N)ncnc32)[C@@H]1O
7.28

Provide NCI/ADR-RES TGI reading for C#C[C@@]1(O)[C@@H](CO)O[C@@H](n2cc(F)c3c(N)ncnc32)[C@@H]1O .
11.3

Find TGI for C#C[C@@]1(O)[C@@H](CO)O[C@@H](n2cc(Cl)c3c(N)ncnc32)[C@@H]1O on NCI/ADR-RES and write it down.
0.777

State TGI on NCI/ADR-RES. Entry: C#C[C@@]1(O)[C@@H](CO)O[C@@H](n2cc(Br)c3c(N)ncnc32)[C@@H]1O
1.02

====

- Tested on: PC-3
- assay_text: Growth inhibition of human PC3 cells assessed as cell growth at 10^-6 M incubated for 48 hrs by sulforhodamine B assay relative to control
- Format: functional
- condition_parameters: PC-3, 48 h, read-out: Activity
readout_type: growth at 1 µM (%)
All answers are understood in %, so give the number only.

>>> test_value("C#C[C@@]1(O)[C@@H](CO)O[C@@H](n2cc(F)c3c(N)ncnc32)[C@@H]1O")
11

Now for another entry.
Return growth at 1 µM for the following molecule: C#C[C@@]1(O)[C@@H](CO)O[C@@H](n2ccc3c(N)ncnc32)[C@@H]1O
45

====

- Test system: HCT-116
- assay_text: Growth inhibition of human HCT116 cells assessed as cell growth at 10^-5 M incubated for 48 hrs by sulforhodamine B assay relative to control
- Type: functional
- condition_parameters: HCT-116, 48 h, read-out: Activity
readout_type: growth at 10 µM (%)
Note: unit % is implicit; provide only the numeric part.

These solved cases illustrate the format of a correct answer.
>>> test_value("C#C[C@@]1(O)[C@@H](CO)O[C@@H](n2cc(I)c3c(N)ncnc32)[C@@H]1O")
3
>>> test_value("C#C[C@@]1(O)[C@@H](CO)O[C@@H](n2ccc3c(N)ncnc32)[C@@H]1O")
2
>>> test_value("C#C[C@@]1(O)[C@@H](CO)O[C@@H](n2cc(F)c3c(N)ncnc32)[C@@H]1O")
-9

Continue with the next molecule.
Tell me growth at 10 µM of C#C[C@@]1(O)[C@@H](CO)O[C@@H](n2cc(Cl)c3c(N)ncnc32)[C@@H]1O when tested on HCT-116.
4
